Test: protein stability index of a GFP-peptide fusion (GPS, HEK-293T) (PSI 1-6); higher = more stable;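 further: 24-mer peptide tiles fused after GFP, lentivirally expressed, FACS-sorted into six equal bins by GFP/DsRed ratio, decoded by Illumina sequencing, PSI is the read-weighted mean bin number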
Details: treatment: MLN4924 1 uM, 8 h; c terminus: a fixed tail appended

| sequence_string | protein stability index |
| --- | --- |
| EELDKYWSQQIEESTTVVTTQSAE [KRT18] | 5.23 |
| GPWQLNVFVCRVSAVLFYVNMYVS [P2RY14] | 2.72 |
| YSALREESAKDWETSPLPGMLAPA [PPFIA4] | 4.04 |
| PGCGYFCTAGNFMECQPESSISHR [EHMT1] | 2.61 |
| DNWKSQVEPETRAVIRWMHSFNFV [CPN1] | 2.23 |
| TILPQEIQSRVQELHPESGEEAVT [ZNF263] | 5.33 |
| VLQIDNAKLAADDFRTKYETELSL [KRT36] | 3.49 |
| AQSLPGPCAAAREGRLERRECGLA [IRX6] | 4.53 |
| SQVMGSGRGSLSSGGQTSWDSGCL [PLEKHN1] | 3.98 |
| EPQTEHQQESESEIDSVPKTQSEL [MIA2] | 5.59 |
| PFSSSSPENVEDSGLDSPSHAAPG [FCHO1] | 5.4 |
| GLSDPGKIKRLRSQVQVSLEDYIN [HNF4A] | 2.93 |
